Listed here: items and their measured IC50.
Target: human Werner helicase (WRN-BV08, Uniprot Q14191, amino acids 517-1235 with L1074F point mutation) (Homo sapiens, UniProt Q14191, L1074F)
Construct: Uniprot Q14191, amino acids 517-1235 with L1074F point mutation; TEV-cleavable 8×His (C, cleaved yes); made in house; host or cells: Sf9 insect cells (baculovirus)
Sequence (Q14191 with tags, fused parts or gaps L1074F limits assumed): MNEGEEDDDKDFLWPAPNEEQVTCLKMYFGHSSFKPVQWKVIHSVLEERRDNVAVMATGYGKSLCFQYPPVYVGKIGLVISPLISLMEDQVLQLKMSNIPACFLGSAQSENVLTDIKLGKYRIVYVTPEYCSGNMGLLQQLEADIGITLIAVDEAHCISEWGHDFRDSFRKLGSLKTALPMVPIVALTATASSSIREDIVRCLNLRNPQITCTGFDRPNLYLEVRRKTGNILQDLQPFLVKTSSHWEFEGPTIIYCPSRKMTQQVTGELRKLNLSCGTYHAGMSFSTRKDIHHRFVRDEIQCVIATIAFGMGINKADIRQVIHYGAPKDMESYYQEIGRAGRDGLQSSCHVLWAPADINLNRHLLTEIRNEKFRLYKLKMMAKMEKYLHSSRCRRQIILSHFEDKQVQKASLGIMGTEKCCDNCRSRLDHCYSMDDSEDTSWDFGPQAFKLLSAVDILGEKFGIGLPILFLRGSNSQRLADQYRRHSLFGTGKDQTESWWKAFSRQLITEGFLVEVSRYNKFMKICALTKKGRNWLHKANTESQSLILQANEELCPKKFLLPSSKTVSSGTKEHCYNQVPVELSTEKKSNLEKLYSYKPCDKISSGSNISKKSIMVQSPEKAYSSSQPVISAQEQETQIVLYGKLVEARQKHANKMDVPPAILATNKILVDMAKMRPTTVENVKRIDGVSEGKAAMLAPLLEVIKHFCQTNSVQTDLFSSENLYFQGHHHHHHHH
Assay: WRN (BV08) ADP-Glo Assay
Format: biochemical
Conditions: 0.15 nM WRN, 5 μM ATP, 0.1 nM DNA duplex, 15 min preincubation, 60 min at 25° C., pH 7.5, 1% DMSO; read-out: ADP-Glo_hWRN_IC50

Answered examples (5):
Compound	IC50
O=C(N(Cc1ccncc1)C1C=CS(=O)(=O)C1)C(F)(F)n1cc(-c2ccccc2)nn1 (stereo not drawn)	> 50 µM
COc1cc(CN(C(=O)C2Cc3cc(-n4cccc4)ccc32)C2C=CS(=O)(=O)C2)ccn1 (stereo not drawn)	0.5 to 5 µM
Cc1ccnn1-c1ccc(CC(=O)N(Cc2ccncc2)C2C=CS(=O)(=O)C2)cc1 (stereo not drawn)	> 50 µM
COc1cc(CN(C(=O)C(OC)c2ccc(C(F)(F)F)cc2)C2C=CS(=O)(=O)C2)ccn1 (stereo not drawn)	5 to 10 µM
COc1cc(CN(C(=O)Cn2ncc3cc(C(F)(F)C(F)(F)F)ccc32)[C@@H]2C=CS(=O)(=O)C2)ccn1	0.5 to 5 µM

Memo: O=C(C1C2CN(CC(F)(F)F)CC21)N(Cc1ccncc1)C1C=CS(=O)(=O)C1 (stereo not drawn) , reported IC50: > 50 µM

The recorded IC50 for CC(C)(O)c1cc(CN(C(=O)C(OC2CC2)c2ccc(-c3ccc(F)c(F)c3)cc2F)[C@@H]2C=CS(=O)(=O)C2)ccn1 (single isomer, unassigned) is < 0.5 µM

Lab note: measured IC50 of CN(C)C(=O)C(C(=O)N(Cc1ccncc1)C1C=CS(=O)(=O)C1)c1ccc(Br)cc1 (stereo not drawn) was > 50 µM

IC50 recorded for this compound, O=C(Cc1ccc(-n2cccc2)cc1)N(Cc1noc(C2CC2)n1)C1C=CS(=O)(=O)C1 (stereo not drawn) , is 10 to 50 µM

The compound listed as Cc1cccn1-c1ccc(CC(=O)N(Cc2ccc(C(=O)O)cc2)C2C=CS(=O)(=O)C2)c(F)c1 (stereo not drawn) has a reported IC50 of 0.5 to 5 µM

Reported IC50 for O=C(O)c1ccc(CN(C(=O)Cc2ccc(-n3cccc3)cc2)C2C=CS(=O)(=O)C2)cc1 (stereo not drawn) was 10 to 50 µM

Entry under test: O=C(C(C1CC1)n1cc(-c2ccccc2)cn1)N(Cc1ccncc1)C1C=CS(=O)(=O)C1 (stereo not drawn) . Its IC50 was > 50 µM

// COc1cc(-c2ccc(F)cc2)ccc1CC(=O)N(Cc1ccncc1)C1C=CS(=O)(=O)C1 (stereo not drawn) : IC50 value = 10 to 50 µM

So, COc1cc(CN(C(=O)C(OC2CCN(S(C)(=O)=O)CC2)c2ccc(-c3ccc(F)c(F)c3)cc2F)[C@@H]2C=CS(=O)(=O)C2)ccn1 (stereo partly drawn) ? Its IC50 was 5 to 10 µM

Entry CN(C)C(=O)C(C(=O)N(Cc1ccncc1)C1C=CS(=O)(=O)C1)c1ccc(-c2ccc(F)cc2)cc1 (single isomer, unassigned) [I-374] ; IC50 = > 50 µM

Noted for COc1cc(CN(C(=O)Cn2cc(-c3ccc(F)c(F)c3)c(C)n2)[C@@H]2C=CS(=O)(=O)C2)ccn1 : its IC50 reads 10 to 50 µM

# compound O=C(Cc1ccc(S(F)(F)(F)(F)F)cc1)N(Cc1nc(C2CC2)cs1)C1C=CS(=O)(=O)C1 (single isomer, unassigned) [I-4] ; its IC50 = < 0.5 µM

Noted for O=C(Cc1cccc(C(F)(F)F)c1)N(Cc1ccncc1)C1C=CS(=O)(=O)C1 (stereo not drawn) : its IC50 reads > 50 µM

Notebook: COc1cc(CN(C(=O)Cc2ccc(-n3ccc(F)cc3=O)cc2F)C2C=CS(=O)(=O)C2)ccn1 (stereo not drawn) , IC50 read as > 50 µM

Measured IC50, CN(C)C(=O)C(C(=O)N(Cc1nc(C2CC2)cs1)C1C=CS(=O)(=O)C1)c1ccc(-c2ccc(F)c(F)c2)cc1F (stereo not drawn) : < 0.5 µM

# IC50 of CC(C)(O)c1cc(CN(C(=O)Cc2ncc(-c3ccc(F)c(F)c3)cc2F)C2C=CS(=O)(=O)C2)ccn1 (single isomer, unassigned) [I-50] = < 0.5 µM

Record summary for Cc1ccc(-c2ccc(CC(=O)N(Cc3ccncc3)C3C=CS(=O)(=O)C3)cc2)cc1 (stereo not drawn) : reported IC50 = > 50 µM

Lab book: IC50 of O=C(Cc1ccn(-c2ccc(F)cc2)n1)N(Cc1ccncc1)C1C=CS(=O)(=O)C1 (stereo not drawn) noted as > 50 µM

Short answer for COc1cc(CN(C(=O)C(OC)c2ccc(-c3ccc(F)cc3)cc2)C2C=CS(=O)(=O)C2)ccn1 (stereo not drawn) : IC50 was 0.5 to 5 µM

Hey, just so you know, these numbers are from patent US20260297070A1.
